Exercise: state measured A450nm for each of the binders provided.
TARGET OR SYSTEM: T1, Cynomolgus PSGL-1(ECD)-hFc1 (cynomolgus macaque)
T1 construct: also called Cyno PSGL1-Fc; Cyno PSGL-1(ECD)-Fc
T1 sequence (chain, as listed by the source limits assumed): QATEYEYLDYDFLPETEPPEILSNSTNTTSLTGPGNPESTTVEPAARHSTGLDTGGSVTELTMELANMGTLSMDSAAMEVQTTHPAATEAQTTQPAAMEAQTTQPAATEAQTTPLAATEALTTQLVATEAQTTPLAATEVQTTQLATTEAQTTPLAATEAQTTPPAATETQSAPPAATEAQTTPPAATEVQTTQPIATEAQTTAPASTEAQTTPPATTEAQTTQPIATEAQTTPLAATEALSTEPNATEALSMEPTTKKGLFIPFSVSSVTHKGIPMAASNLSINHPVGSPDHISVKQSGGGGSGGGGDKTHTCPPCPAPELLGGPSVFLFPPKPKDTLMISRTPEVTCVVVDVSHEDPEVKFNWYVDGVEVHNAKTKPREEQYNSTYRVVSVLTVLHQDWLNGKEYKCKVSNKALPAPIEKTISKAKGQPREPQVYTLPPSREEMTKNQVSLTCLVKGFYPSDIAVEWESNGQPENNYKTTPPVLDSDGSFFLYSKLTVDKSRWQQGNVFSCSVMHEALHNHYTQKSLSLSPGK
EXPERIMENTAL PROTOCOL: ELISA, 20 nM mAb on plate cyno PSGL-1(ECD)-Fc
# output: bare number, implied unit A450 nm

Ask: Reported A450nm for 09B09 (antibody, IgG4, V domains shown) VH: EVKLLESGGGLVQPGGSLRLSCAASGITFSTYAMMWVRQAPGKGLEWVSGISGSGASRYYADSVKGRFTISRDNSKNMLYLQMNSLRAEDTAVYYCAKKVLGRRKQYFDDWGQGTLVTVSS VL: DIVMTQSPLSLPVTPGEPASISCRSSQSLLHSNGYNYLDWYLQRPGQSPQLLIYLGSHRASGVPDRFSGSGSGTEHTLKITTVAAEDVGVYYCMQALQSPPTFGQGTRLDIK : what is it?
Reply: 1.77

Ask: Reported A450nm for 06A07 (antibody, IgG4, V domains shown) VH: QVQLVQSGPELKNPGASVKVSCKASGYSFTNFYINWVRQAPGRGLEWVGWISPNNGNTHYARNLQGRVTMTTDTSTNTAYLELKNLRSDDTAIYFCGRSVSMGYWGQGTLVTVSS VL: LPVLTQPPSVSKGLRQTATLTCTGNSKNVGNQGAAWLQQHQGQPPKLLSYRNNNRPSGISERFSASRSGNTASLTITGLQPEDEADYYCSAWDSSLSAQVFGGGTKLTVL : what is it?
Reply: 1.27
